Target: T1, human DLL4 extracellular domain (human, UniProt Q9NR61 27-529)
T1 construct: purified recombinant ECD; biotin-labelled or 6xHis-tagged depending on the assay; also called huDLL4 ECD; hu DLL4 ECD
T1 sequence (Q9NR61 27-529 limits assumed): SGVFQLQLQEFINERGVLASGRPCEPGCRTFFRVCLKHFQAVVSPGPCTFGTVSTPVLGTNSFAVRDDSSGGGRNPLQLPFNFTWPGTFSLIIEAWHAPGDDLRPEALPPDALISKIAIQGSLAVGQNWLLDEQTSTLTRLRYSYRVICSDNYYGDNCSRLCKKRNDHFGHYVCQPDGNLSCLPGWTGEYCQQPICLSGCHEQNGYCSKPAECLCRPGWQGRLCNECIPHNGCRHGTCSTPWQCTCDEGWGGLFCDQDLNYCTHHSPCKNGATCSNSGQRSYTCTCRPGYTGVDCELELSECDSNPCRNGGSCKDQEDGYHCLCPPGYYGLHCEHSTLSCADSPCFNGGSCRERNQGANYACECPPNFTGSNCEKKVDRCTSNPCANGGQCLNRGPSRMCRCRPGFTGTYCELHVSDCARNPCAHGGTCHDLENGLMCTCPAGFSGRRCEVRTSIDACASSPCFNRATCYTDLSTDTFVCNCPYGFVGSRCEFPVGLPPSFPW
Test: SPR (Biacore)
Procedure: The BIACORE® surface plasmon resonance assay (Biacore, Inc., Piscataway, N.J., US) determines the affinity of antibodies with kinetic measurements of on-rate and off-rate constants. […] The equilibrium dissociation constant KD (M) of the reaction between antibodies and the target antigen was then calculated from the kinetic rate constants by the following formula: KD=Koff/Kₒₙ. Binding was recorded as a function of time and kinetic rate constants were calculated.
REPORTED PROPERTY: koff (s⁻¹)
Lab book: enter the figure in s⁻¹, no units written.

## Task Return reported koff; argument: 38H12 rat anti-DLL4 monoclonal antibody (antibody, rat IgG2a, V domains shown, rat IgG2a/k hybridoma mAb; also called MC10-38H12.2G8; 38H12 rat mAb) VH: EVQLVESGGGLVQPGRSLKLSCAASGFTFSNYGMYWIRQAPTKGLQWVAFISHGGGITYYRDSVKGRFTISRDNAKSTLYLQMDSLRSEDTATYHCAALNWELGIDYWGQGVMVTVSS VL: DIQMTQSPASLSASLGETISIECRASEDIYSNLAWYQKKSGKSPQLLIYAANRLQDGVPSRFSGSGSGTQYSLKISGMQPEDEGDYFCLQGSKFPLTFGSGTKLEIKR
## Result 0.00011

## Task Return reported koff; argument: 15D6 rat anti-DLL4 monoclonal antibody (antibody, rat IgG2a, V domains shown, rat IgG2a/K hybridoma mAb; also called MC13-15D6.1G7) VH: EVQLQQSGPELAKPGSSVKISCKASGYTFTSSYISWIKQTTGQGLEYIGYINTGSGGTDYNEKFKDKATLTVDKSSRTVFMQLSSLTPGDSAVYYCAKSILLGSTYYLDYWGQGVMVTVSS VL: DTVLTQSPALAVSLGQRVTISCKASRSLSSPMYSYIYWYQQKLGQQPRLLIYRASTLASGVPARFSGSGSGTDFTLNIDPVEADDIATYFCQQSWSDPFTFGSGTKLEIKR
## Result 0.001

## Task Return reported koff; argument: 1A11 rat anti-DLL4 monoclonal antibody (antibody, rat IgG1, V domains shown, rat IgG1/K hybridoma mAb; also called MC13-1A11.2E1; 1A11 (rat mAb)) VH: EVQLVESGGGLVQPGRSMKLSCAASGFTFRNFPMAWVRQAPTRGLEWVATISSSDGTTYYRDSVKGRFTISRDNAKSTLYLQVNSLRSEDTATYYCSRGYYNSPFAYWGQGTLVTVSS VL: DIQMTQSPASLSASLGETVTIECRASEDIYSNLAWYQQKPGNSPQLLIFDTNNLADGVPSRFSGSGSGTQSSLKINSLQSEDVASYFCQQYNNYPPTFGGGTKLELKR
## Result 0.0011

## Task Return reported koff; argument: 14G1 rat anti-DLL4 monoclonal antibody (antibody, rat IgG2a, V domains shown, rat IgG2a/K hybridoma mAb; also called MC13-14G1.1B4) VH: EVQLQQSGAELAKPGSSVKISCKASGYTFTNYDISWIKQTNGQGLEYLGYINTGSGGIYSNEKFKGKATLTVDKSSNTAFMQLSSLTPEDTAVYYCVREGNNFDHWGQGVKVTVSS VL: DTVMTQSPASMSTSVGERVTVNCKASQSVGTIVAWFQQKPGQSPKRLIYLATYRHTGVPDRFIGSGFGRDFTLTISNVEAEDLAVYYCLQYGSRPFTFGAGTKLEIKR
## Result 0.00039
